test system: Hepatotoxicity; assay: FDA HLAED, gamma-glutamyl transferase (GGT) increase; conditions: human
Property Name: GGT Increase - Number of Reports

Oc1ncnc2[nH]ncc12 [ALLOPURINOL]
>= 4
CN(Cc1ccc(C(C)(C)C)cc1)Cc1cccc2ccccc12 [BUTENAFINE]
< 4
CCOC(=O)Nc1ccc2c(c1)N(C(=O)CCN1CCOCC1)c1ccccc1S2 [MORICIZINE]
< 4
CO/N=C(\C(=O)N[C@@H]1C(=O)N2C(C(=O)O)=CCS[C@H]12)c1csc(N)n1 [CEFTIZOXIME]
< 4
Nc1nnc(-c2cccc(Cl)c2Cl)c(N)n1 [LAMOTRIGINE]
< 4

Required: GGT Increase - Number of Reports, one value per compound below.
1. CCC(=O)Oc1ccc2c(c1)CC[C@@H]1[C@@H]2CC[C@]2(C)[C@@H](OC(=O)CC)CC[C@@H]12 [ESTRADIOL DIPROPIONATE]
2. Nc1cc(N2CCCCC2)nc(N)[n+]1[O-] [MINOXIDIL]
3. COc1cc2nc(N3CCN(C(=O)C4COc5ccccc5O4)CC3)nc(N)c2cc1OC (stereo not drawn) [DOXAZOSIN]
4. O=C1CC2(CCCC2)CC(=O)N1CCCCN1CCN(c2ncccn2)CC1 [BUSPIRONE]
5. COCCc1ccc(OCC(O)CNC(C)C)cc1 (stereo not drawn) [METOPROLOL]
6. C[C@]12CC[C@H]3[C@@H](CCC4=CC(=O)CC[C@@]43C)[C@@H]1CC[C@@H]2O [TESTOSTERONE]
7. COc1ccc(CCN2CCC(Nc3nc4ccccc4n3Cc3ccc(F)cc3)CC2)cc1 [ASTEMIZOLE]
8. N[C@@H](C(=O)N[C@@H]1C(=O)N2C(C(=O)O)=C(Cl)CS[C@H]12)c1ccccc1 [CEFACLOR ANHYDROUS]

Resp:
< 4
< 4
< 4
< 4
< 4
< 4
>= 4
< 4
